# assayed.system: Shiga toxin 2 (Escherichia coli O157:H7) (UniProt P09385+P09386)
# run.description: E. coli 0.157:H7 Shiga Toxin SOP - stx2 screening assay
# Assay type: functional
# Set-up: scale not given: direction of the effect not stated beside the values
# assay.context: 30 µM
Percent Effect for assorted molecules

{"columns": ["molecule", "data.value"],
 "data": [
  ["CN(CCC#N)C(=O)CCOc1cccc(F)c1", "-25.6%"],
  ["O=C(c1ccco1)N1C[C@H]2CCCN(CC3CCOCC3)[C@H]2C1", "2.22%"],
  ["CC(NC(=O)CSCC#N)c1cccc(NC(=O)c2ccccc2)c1 (configuration not stated)", "6.38%"],
  ["Cc1cncc(C(=O)N2CCCC(C(=O)CCc3ccccc3)C2)c1 (configuration not stated)", "-26.1%"],
  ["Cn1cccc1CN1CCC2(CCCN(C(=O)c3cnccn3)C2)C1 (configuration not stated)", "-9.19%"],
  ["CCOc1ccc(CC(CNC(=O)c2ccoc2)C(N)=O)cc1 (configuration not stated)", "-12.5%"]
]}

Could you share which Percent Effect value was measured for Cc1ccc(CNC(c2ccccc2)c2nccn2C)cc1C (configuration not stated) ?
14.8%

Could you share which Percent Effect value was measured for Cc1cncc(C2CCCN(C(=O)c3cccn3C)C2)n1 (configuration not stated) ?
-12.2%

Could you share which Percent Effect value was measured for CCC(CC)c1cc(CNC(=O)N2CCOCC2CC)on1 (configuration not stated) ?
9.7%

Could you share which Percent Effect value was measured for `Cc1ccccc1C1(CNC(=O)NCCc2nnc3n2CCC3)CC1` ?
-0.461%

Could you share which Percent Effect value was measured for `c1cc(OCc2ccc3c(c2)OCO3)ccc1CNC1CC1` ?
-108%

Could you share which Percent Effect value was measured for CC(O)CN1CCN(C(=O)c2cccc(CC#N)c2)CC1 (configuration not stated) ?
-54.8%
